Origin of the recorded values: patent US6693217B2

Experiment: Toxicity: testis weight/body weight after 106 days of drug treated feed
Conditions: male CD-1 mice, 8-mice groups, drug treated feed 106 days (300 ppm first 79 days, 600 ppm days 80-106); control 0.30
Where a name gives a salt, the structure may show the parent alone.
measure.name: Mean values for testes: Left, % body wt (% body wt)
Please respond with the number in % body wt and leave the unit unwritten.

Problem: Fill in Mean values for testes: Left, % body wt for record "CC(C)NC(=N)NC(=N)NOCCCOc1ccc(Cl)cc1"
Solution: 0.27

Problem: Quick one: give measured Mean values for testes: Left, % body wt for "CC(C)NC(=N)NC(=N)NOCCCOc1ccc(Cl)cc1Cl"
Solution: 0.19

Problem: Retrieve Mean values for testes: Left, % body wt measured for "CC(C)NC(=N)NC(=N)NOCCCOc1ccc(F)c(F)c1" and print it.
Solution: 0.21

Problem: Please supply the value of reported Mean values for testes: Left, % body wt for the item "CC(C)NC(=N)NC(=N)NOCCCOc1ccc(Cl)c(Cl)c1"
Solution: 0.29

Problem: Assign Mean values for testes: Left, % body wt to the following record: CC(C)NC(=N)NC(=N)NOCCCOc1cc(Cl)c(Cl)cc1Cl [PS-15, hydrochloride, reference compound]
Solution: 0.21
